Species on record: Mus musculus
Test: Compound was evaluated for the cytotoxicity to L1210 leukemia cells in culture at ~1.6-fold higher concentrations and expressed as ID50
Assay type: functional
Settings: read-out: ID50 (the source's name)
Reported pIC50 is given for each of the following molecules.
Value format note: pIC50 is -log10 of concentration (mol/L); just state the number.

>  <Smiles string>
NC(=O)c1csc([C@@H]2O[C@H](CO)[C@@H](O)[C@H]2O)n1

>  <pIC50>
5.72

$$$$

Suppose we examine the molecule `NC(=O)c1csc([C@@H]2O[C@H](COP(=O)(O)O)[C@@H](O)[C@H]2O)n1` ; what pIC50 value has been reported?
5.49
